Target: T1, recombinant cynomolgus C1r2s2 tetramer (cynomolgus monkey, limits assumed)
T1 construct: also called cyC1r2s2; monkey C1r2s2
T1 chain 1: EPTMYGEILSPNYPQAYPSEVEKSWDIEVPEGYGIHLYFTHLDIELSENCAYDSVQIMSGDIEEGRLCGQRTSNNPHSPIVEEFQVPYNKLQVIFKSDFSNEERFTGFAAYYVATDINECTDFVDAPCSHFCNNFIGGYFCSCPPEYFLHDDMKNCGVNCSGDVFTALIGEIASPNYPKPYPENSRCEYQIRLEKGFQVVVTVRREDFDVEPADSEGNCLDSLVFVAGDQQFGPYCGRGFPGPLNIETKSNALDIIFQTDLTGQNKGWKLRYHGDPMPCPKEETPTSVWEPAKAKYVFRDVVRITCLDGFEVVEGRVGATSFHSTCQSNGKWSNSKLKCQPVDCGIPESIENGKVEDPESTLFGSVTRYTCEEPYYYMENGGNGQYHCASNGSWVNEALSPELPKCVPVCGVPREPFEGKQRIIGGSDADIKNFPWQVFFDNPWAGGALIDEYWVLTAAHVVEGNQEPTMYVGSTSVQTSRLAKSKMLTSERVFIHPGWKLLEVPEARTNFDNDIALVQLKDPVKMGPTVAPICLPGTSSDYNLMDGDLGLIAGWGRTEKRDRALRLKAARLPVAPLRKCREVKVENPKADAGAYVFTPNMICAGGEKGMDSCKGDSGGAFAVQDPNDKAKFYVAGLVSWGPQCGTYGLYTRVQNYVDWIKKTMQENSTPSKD
T1 chain 2: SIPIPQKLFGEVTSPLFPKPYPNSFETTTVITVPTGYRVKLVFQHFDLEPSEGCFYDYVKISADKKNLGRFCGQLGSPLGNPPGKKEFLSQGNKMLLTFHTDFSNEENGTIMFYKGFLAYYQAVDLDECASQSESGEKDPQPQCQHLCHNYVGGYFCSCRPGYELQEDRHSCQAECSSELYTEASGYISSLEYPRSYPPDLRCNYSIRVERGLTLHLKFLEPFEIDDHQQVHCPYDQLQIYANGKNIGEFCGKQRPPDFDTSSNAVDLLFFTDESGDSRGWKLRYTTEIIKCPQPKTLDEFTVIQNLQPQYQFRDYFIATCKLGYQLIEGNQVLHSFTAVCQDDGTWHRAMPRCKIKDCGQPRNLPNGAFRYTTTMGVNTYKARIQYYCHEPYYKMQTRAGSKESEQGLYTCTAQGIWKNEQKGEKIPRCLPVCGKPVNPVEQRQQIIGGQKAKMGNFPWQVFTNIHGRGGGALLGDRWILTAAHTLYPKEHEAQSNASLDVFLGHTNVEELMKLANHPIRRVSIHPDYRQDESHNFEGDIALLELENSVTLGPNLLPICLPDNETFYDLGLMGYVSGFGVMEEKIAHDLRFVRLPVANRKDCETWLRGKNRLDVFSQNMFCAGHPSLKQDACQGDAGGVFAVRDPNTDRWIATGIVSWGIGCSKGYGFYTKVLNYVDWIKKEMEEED
Test: SPR (Biacore T200), 37 C, pH 7.4; cyC1r2s2 captured by IPN009, antibody as analyte
MEASURED_PARAMETER: Kd (nM)
Enter your answer as a number in nM; do not include the unit.

Here is how some binders turned out for Kd.
COS0637pHv15-G1A3FcgSil+LowpI (antibody, V domains shown, VH 24, VL 59, CH 45 (G1A3FcgSil+LowpI), CL 23) VH: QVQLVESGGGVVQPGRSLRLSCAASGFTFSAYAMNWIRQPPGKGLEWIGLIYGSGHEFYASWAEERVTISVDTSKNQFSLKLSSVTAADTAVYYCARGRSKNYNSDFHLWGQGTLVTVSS VL: DIQMTQSPSSLSASVGDRVTITCQANEILHDKKNLAWYQQKPGQPPKLLIYGASTLESGVPSRFSGSGSGTDFTLTISSLQPEDFATYYCHGEFSYHSADLNTFGQGTKVEIKR ... 0.492
COS0637pHv16-G1A3FcgSil+LowpI (antibody, V domains shown, VH 36, VL 55, CH 45, CL 23) VH: QVQLVESGGGVVQPGRSLRLSCAASGFTFSAYTMNWIRQPPGKGLEWIGLIYGSGHEFYASWAEERVTISVDTSKNQFSLKLSSVTAADTAVYYCARGRSKNYNSDFHLWGQGTLVTVSS VL: DIQMTQSPSSLSASVGDRVTITCQAHEILHDKKNLAWYQQKPGQPPKLLIYGASQRESGVPSRFSGSGSGTDFTLTISSLQPEDFATYYCHGEFPHSSADLNHFGQGTKVEIKR ... 0.196
COS0637pHv17-G1A3FcgSil+LowpI (antibody, V domains shown, VH 24, VL 55, CH 45, CL 23) VH: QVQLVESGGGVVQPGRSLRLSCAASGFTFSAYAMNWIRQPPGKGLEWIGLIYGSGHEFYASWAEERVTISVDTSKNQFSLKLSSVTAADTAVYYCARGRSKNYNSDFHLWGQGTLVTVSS VL: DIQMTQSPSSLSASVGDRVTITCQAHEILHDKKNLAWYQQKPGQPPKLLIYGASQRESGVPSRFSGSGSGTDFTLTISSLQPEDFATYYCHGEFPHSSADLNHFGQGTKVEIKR ... 0.252
COS0637pHv23-G1A3FcgSil+LowpI (antibody, V domains shown, VH 28, VL 51, CH 45, CL 23) VH: QVQLVESGGGVVQPGRSLRLSCAASGFTFSAYAMNWIRQPPGKGLEWIGLIYGTGHEFYASWAEERVTISVDTSKNQFSLKLSSVTAADTAVYYCARGRSKNYNSDFHIWGQGTLVTVSS VL: DIQMTQSPSSLSASVGDRVTITCQAHEILHDKKNLAWYQQKPGQPPKLLIYSASILESGVPSRFSGSGSGTDFTLTISSLQPEDFATYYCHGEFSHGSADLNHFGQGTKVEIKR ... 0.334

Entry COS0637pHv21-G1A3FcgSil+LowpI (antibody, V domains shown, VH 24, VL 47, CH 45, CL 23) VH: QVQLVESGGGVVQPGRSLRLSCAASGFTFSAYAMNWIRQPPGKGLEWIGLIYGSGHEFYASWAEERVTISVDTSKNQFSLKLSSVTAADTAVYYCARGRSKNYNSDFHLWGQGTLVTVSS VL: DIQMTQSPSSLSASVGDRVTITCQAHEILHDKKNLAWYQQKPGQPPKLLIYSASILESGVPSRFSGSGSGTDFTLTISSLQPEDFATYYCHGEFSHGSGDLNHFGQGTKVEIKR : reported Kd = ? 0.346

Entry COS0637pHv25-G1A3FcgSil+LowpI (antibody, V domains shown, VH 32, VL 55, CH 45, CL 23) VH: QVQLVESGGGVVQPGRSLRLSCAASGFTFSAYAMNWIRQPPGKGLEWIGLMYGSGHEFYASWAEERVTISVDTSKNQFSLKLSSVTAADTAVYYCARGRSKNYNSDFHLWGQGTLVTVSS VL: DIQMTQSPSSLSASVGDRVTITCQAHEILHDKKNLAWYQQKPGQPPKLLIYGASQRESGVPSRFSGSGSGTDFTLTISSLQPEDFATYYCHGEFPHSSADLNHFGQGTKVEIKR : reported Kd = ? 0.243

Entry COS0637pHv3-TT91R (antibody, human IgG1, V domains shown, Modified human IgG1 constant region TT91R, light chain constant region SK1) VH: QVQLVESGGGVVQPGRSLRLSCAASGFTFSAYAMNWIRQPPGKGLEWIGLIYGSGHEFYASWAEERVTISVDTSKNQFSLKLSSVTAADTAVYYCARGRSKNYVSGFHLWGQGTLVTVSS VL: DIQMTQSPSSLSASVGDRVTITCQASQILHDKKNLAWYQQKPGQPPKLLIYQASQLESGVPSRFSGSGSGTDFTLTISSLQPEDFATYYCHGEFSYESADLNQFGQGTKVEIKR : reported Kd = ? 0.502
